System: HCT116 cells
Experimental Details: Cell viability assay (CellTiter-Glo, 72 hours) in HCT116 human colorectal cancer cells
Assay type: cell-based
Measurement Parameters: Table 8; analogs of scaffold drawing 43 defined by R^2, R^3, X/Y, W; read-out: Activity (IC50 class, cell viability assay)
Property Measured: IC50

>>> measured_result("CC#CCN1C(=O)c2ccccc2Sc2cc(NC(=O)[C@@H]3C[C@H]3C(=O)OC)ccc21 (relative stereo) [—CH2CCMe; trans-2-MeO2C-cPr; CH/CH; CH]")
"< 500 nM"
>>> measured_result("CC#CCN1C(=O)c2ccc(F)cc2Sc2cc(NC(=O)[C@@H]3C[C@H]3CO)cnc21 (relative stereo) [—CH2CCMe; trans-2-HOCH2-cPr; CF/CH; N]")
"< 500 nM"
>>> measured_result("CO[C@H]1C[C@H](C(=O)Nc2cnc3c(c2)Sc2ccccc2C(=O)N3CC#CCF)C1 [—CH2CCCH2F; trans-3-MeOcBu; CH/CH; N]")
"< 500 nM"
>>> measured_result("CC#CCN1C(=O)c2cc(F)ccc2Sc2cc(NC(=O)C3CC4(CC(=O)C4)C3)ccc21")
"< 500 nM"
>>> measured_result("CO[C@H]1C[C@@H](C(=O)Nc2ccc3c(c2)Sc2ccc(F)cc2C(=O)N3CC#CCl)C1 [—CH2CCCl; cis-3-MeOcBu; CH/CF; CH]")
"< 500 nM"
>>> measured_result("COc1ccc(C(=O)Nc2ccc3c(c2)Sc2ccccc2C(=O)N3CC#CC(F)(F)F)cc1 [—CH2CCCF3; 4-MeOPh; CH/CH; CH]")
"< 500 nM"
>>> measured_result("CC#CCN1C(=O)c2ccccc2Sc2cc(NC(=O)c3cccc(C(=O)N(C)C)c3)ccc21 [—CH2CCMe; 3-Me2NC(O)Ph; CH/CH; CH]")
"< 500 nM"
>>> measured_result("CC#CCN1C(=O)c2ccc(Cl)cc2Sc2cc(NC(=O)[C@H]3C[C@@H](OC)C3)ccc21 [—CH2CCMe; cis-3-MeOcBu; CCI/CH; CH]")
"< 500 nM"
>>> measured_result("CC#CCN1C(=O)c2ccc(Cl)cc2Sc2cc(NC(=O)[C@H]3C[C@@H]3COC)cnc21 (relative stereo) [—CH2CCMe; trans-2-MeOCH2-cPr; CCl/CH; N]")
"< 500 nM"
>>> measured_result("COC12CC(C(=O)Nc3cnc4c(c3)Sc3ccccc3C(=O)N4CC#CCF)(C1)C2")
"< 500 nM"
>>> measured_result("CC#CCN1C(=O)c2ccccc2Sc2cc(NC(=O)C=CCO)ccc21 [—CH2CCMe; CH—CHCH2OH; CH/CH; CH]")
"< 500 nM"
>>> measured_result("CC#CCN1C(=O)c2ccccc2Sc2cc(NC(=O)C3CCN(C)C3)ccc21 (centres unmarked)")
"1000 to 5000 nM"
>>> measured_result("CC#CCN1C(=O)c2ccc(Cl)cc2Sc2cc(NC(=O)C3COC3)ccc21 [—CH2CCMe; oxetan-3-yl; CCl/CH; CH]")
"< 500 nM"
>>> measured_result("CC#CCN1C(=O)c2ccccc2Sc2cc(NC(=O)C3CCC3)cnc21 [—CH2CCMe; cBu; CH/CH; N]")
"< 500 nM"
>>> measured_result("CC#CCN1C(=O)c2ccccc2Sc2cc(NC(=O)c3ccc(OC)cc3)ccc21 [—CH2CCMe; 4-MeOPh; CH/CH; CH]")
"< 500 nM"
>>> measured_result("CC#CCN1C(=O)c2ccc(F)cc2Sc2cc(NC(=O)c3ccc4oc(=O)n(C)c4c3)ccc21")
"< 500 nM"
>>> measured_result("CC#CCN1C(=O)c2ccccc2Sc2cc(NC(=O)CC3COC3)ccc21 [—CH2CCMe; (oxetan-3-yl)CH2; CH/CH; CH]")
"< 500 nM"
>>> measured_result("CC#CCN1C(=O)c2ccccc2Sc2cc(NC(=O)c3ccoc3)ccc21 [—CH2CCMe; furan-3-yl; CH/CH; CH]")
"< 500 nM"
>>> measured_result("CC#CCN1C(=O)c2ccccc2Sc2cc(NC(=O)CCCO)ccc21 [—CH2CCMe; (CH2)3OH; CH/CH; CH]")
"< 500 nM"
>>> measured_result("O=C(Nc1cnc2c(c1)Sc1cc(Cl)ccc1C(=O)N2CC#CCl)C1CC2(CC(=NO)C2)C1 (centres unmarked)")
"< 500 nM"
>>> measured_result("CC#CCN1C(=O)c2ccccc2Sc2cc(NC(=O)[C@H]3C[C@H](O)C3)ccc21 [—CH2CCMe; trans-3-OH-cBu; CH/CH; CH]")
"< 500 nM"
>>> measured_result("CC#CCN1C(=O)c2ccccc2Sc2cc(NC(=O)C3CNC(=O)C3)ccc21 (centres unmarked) [—CH2CCMe; 2-oxo-pyrrolidin-4-yl; CH/CH; CH]")
"1000 to 5000 nM"
>>> measured_result("CC#CCN1C(=O)c2ccccc2Sc2cc(NC(=O)c3ccoc3)cnc21 [—CH2CCMe; furan-3-yl; CH/CH; N]")
"< 500 nM"
>>> measured_result("CC#CCN1C(=O)c2ccc(Cl)cc2Sc2cc(NC(=O)C3CCOC3)ccc21 (centres unmarked)")
"< 500 nM"
>>> measured_result("CC#CCN1C(=O)c2ccccc2Sc2cc(NC(=O)C=CCOC)cnc21 [—CH2CCMe; CH—CHCH2OMe; CH/CH; N]")
"< 500 nM"
>>> measured_result("CC#CCN1C(=O)c2ccccc2Sc2cc(NC(=O)C3CC4(CCC4)C3)ccc21")
"< 500 nM"
>>> measured_result("CC#CCN1C(=O)c2ccc(Cl)cc2Sc2cc(NC(=O)[C@H]3C[C@H](OC)C3)ccc21 [—CH2CCMe; trans-3-MeOcBu; CCl/CH; CH]")
"< 500 nM"
>>> measured_result("CC#CCN1C(=O)c2cc(F)ccc2Sc2cc(NC(=O)C3CC4(CC(=NO)C4)C3)ccc21 (centres unmarked)")
"< 500 nM"
>>> measured_result("O=C(Nc1cnc2c(c1)Sc1ccccc1C(=O)N2CC#CC1CC1)C1CC2(CC(=NO)C2)C1 (centres unmarked)")
"< 500 nM"
